# Tested on: HCI-027 (organoid from a triple-negative breast cancer xenograft)
# EXPERIMENTAL PROTOCOL: CTG-3D luminescence at 96 h relative to day-0 seeding control (ratio to day 0); higher = more growth / less cytotoxicity; PDxO 3D drug screen, 96 h, CTG-3D normalised to day-0 seeding control.
# CONDITION SUMMARY: 0.1 µM; days in culture: 194
METRIC: CTG-3D luminescence at 96 h

SMILES STRUCTURE | EXPERIMENTAL TARGET | METRIC | MEASURED VALUE
NC(=O)Nc1cc(-c2cccc(F)c2)sc1C(=O)N[C@H]1CCCNC1 | HCI-027 | CTG-3D luminescence at 96 h | 0.159
CC[C@H](NC(=O)[C@H](C)NC)C(=O)N1C[C@@H](O)C[C@H]1Cc1c(-c2[nH]c3cc(F)ccc3c2C[C@@H]2C[C@H](O)CN2C(=O)[C@H](CC)NC(=O)[C@H](C)NC)[nH]c2cc(F)ccc12 | HCI-027 | CTG-3D luminescence at 96 h | 0.99
O=C(/C=C/c1cccnc1)NCCCCC1CCN(C(=O)c2ccccc2)CC1 | HCI-027 | CTG-3D luminescence at 96 h | 0.049
NC1(C(=O)N[C@@H](CCO)c2ccc(Cl)cc2)CCN(c2nc[nH]c3nccc2-3)CC1 | HCI-027 | CTG-3D luminescence at 96 h | 1.57
C[C@H](NC(=O)CCC(F)(F)F)C(=O)N[C@@H]1C(=O)N(CCO)c2ncccc2-c2ccccc21 | HCI-027 | CTG-3D luminescence at 96 h | 0.251
NC(=O)c1cccc2cn(-c3ccc([C@@H]4CCCNC4)cc3)nc12 | HCI-027 | CTG-3D luminescence at 96 h | 2.39
O=C(c1ccc(F)c(F)c1Nc1ccc(I)cc1F)N1CC(O)([C@@H]2CCCCN2)C1 | HCI-027 | CTG-3D luminescence at 96 h | 1.42
CCc1c2c(nc3ccc(O)cc13)-c1cc3c(c(=O)n1C2)COC(=O)[C@]3(O)CC | HCI-027 | CTG-3D luminescence at 96 h | 0.307
C/C=C1\NC(=O)[C@H]2CSSCC/C=C/[C@H](CC(=O)N[C@H](C(C)C)C(=O)N2)OC(=O)[C@H](C(C)C)NC1=O | HCI-027 | CTG-3D luminescence at 96 h | 0.437
CNC(=O)c1cccc(-c2ccc3c(N4CCOC[C@@H]4C)nc(N4CCOC[C@@H]4C)nc3n2)c1 | HCI-027 | CTG-3D luminescence at 96 h | 1.58
Cc1nc(-c2cn3c(n2)-c2ccc(-c4cnn(C(C)(C)C(N)=O)c4)cc2OCC3)n(C(C)C)n1 | HCI-027 | CTG-3D luminescence at 96 h | 1.11

###

# Test system: HCI-002 (organoid from a triple-negative breast cancer xenograft)
# EXPERIMENTAL PROTOCOL: CTG-3D luminescence at 96 h relative to day-0 seeding control (ratio to day 0); higher = more growth / less cytotoxicity; PDxO 3D drug screen, 96 h, CTG-3D normalised to day-0 seeding control.
# CONDITION SUMMARY: 0.1 µM; days in culture: 62
Listing of entries alongside the reported CTG-3D luminescence at 96 h.

SMILES STRUCTURE | CTG-3D luminescence at 96 h
NC1(C(=O)N[C@@H](CCO)c2ccc(Cl)cc2)CCN(c2nc[nH]c3nccc2-3)CC1 | 2.56
CCN1CCN(Cc2ccc(Nc3ncc(F)c(-c4cc(F)c5nc(C)n(C(C)C)c5c4)n3)nc2)CC1 | 1.73
Cc1nc(-c2cn3c(n2)-c2ccc(-c4cnn(C(C)(C)C(N)=O)c4)cc2OCC3)n(C(C)C)n1 | 2.06
C=CCn1c(=O)c2cnc(Nc3ccc(N4CCN(C)CC4)cc3)nc2n1-c1cccc(C(C)(C)O)n1 | 2.4
CCc1c2c(nc3ccc(O)cc13)-c1cc3c(c(=O)n1C2)COC(=O)[C@]3(O)CC | 0.53
COc1cc2c(Oc3ccc4[nH]c(C)cc4c3F)ncnc2cc1OCCCN1CCCC1 | 2.46
O=C(/C=C/c1cccnc1)NCCCCC1CCN(C(=O)c2ccccc2)CC1 | 0.0472
